meta.source: patent US20250114463A1

target: human GCG receptor (human, UniProt P47871 26-477); assay: cell-based or functional assay
Sequence (P47871 26-477): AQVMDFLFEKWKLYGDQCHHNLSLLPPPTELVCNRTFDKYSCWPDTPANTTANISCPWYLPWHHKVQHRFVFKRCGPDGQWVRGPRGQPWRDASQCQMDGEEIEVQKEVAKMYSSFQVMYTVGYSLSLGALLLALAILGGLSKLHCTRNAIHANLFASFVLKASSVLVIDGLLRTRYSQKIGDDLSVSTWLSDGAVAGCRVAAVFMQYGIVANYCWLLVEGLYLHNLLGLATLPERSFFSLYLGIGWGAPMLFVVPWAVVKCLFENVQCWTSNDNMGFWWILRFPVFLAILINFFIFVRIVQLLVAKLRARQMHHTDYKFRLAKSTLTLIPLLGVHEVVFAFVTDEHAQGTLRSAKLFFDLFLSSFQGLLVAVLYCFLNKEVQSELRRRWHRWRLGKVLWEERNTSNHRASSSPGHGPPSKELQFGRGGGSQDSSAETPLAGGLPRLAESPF
Bridges are numbered along the chain shown (N, C = ends). Where no end group is shown, it is not given here. [ ]: non-standard residue; d: D form. The star is where a group is joined. Acetyl(2-(4-imidazolyl)) = O=C(Cc1c[nH]cn1)*; Aib = CC(C)(N)C(=O)O
readoutLabel: in vitro Activity Compared to Native Peptide (%), vs Glucagon

Retrieve in vitro Activity Compared to Native Peptide (%), vs Glucagon measured for [Acetyl(2-(4-imidazolyl))]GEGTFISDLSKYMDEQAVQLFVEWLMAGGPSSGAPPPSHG-NH2 [triple agonist of SEQ ID NO: 12] and print it.
< 0.1%

Retrieve in vitro Activity Compared to Native Peptide (%), vs Glucagon measured for HGQGTFTSDCSKYLDGQRAQDFVNWLLAGGPSSGAPPPS (not fully specified (C-terminus)) [triple agonist of SEQ ID NO: 48] and print it.
< 0.1%

Retrieve in vitro Activity Compared to Native Peptide (%), vs Glucagon measured for [Acetyl(2-(4-imidazolyl))]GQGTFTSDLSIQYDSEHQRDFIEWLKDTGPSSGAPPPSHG-NH2 [triple agonist of SEQ ID NO: 19] and print it.
< 0.1%

Retrieve in vitro Activity Compared to Native Peptide (%), vs Glucagon measured for H[Aib]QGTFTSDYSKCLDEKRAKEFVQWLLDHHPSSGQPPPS (bridge 16-20; not fully specified (C-terminus)) [triple agonist of SEQ ID NO: 65] and print it.
25.2%

Retrieve in vitro Activity Compared to Native Peptide (%), vs Glucagon measured for [Acetyl(2-(4-imidazolyl))][Aib]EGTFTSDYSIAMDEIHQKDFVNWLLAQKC (bridge 16-20; not fully specified (C-terminus)) [triple agonist of SEQ ID NO: 90] and print it.
< 0.1%
